All figures here come from patent US20250049817A1.

Let's look at some compounds and their measured JAK2/JAK1.
System: human JAK1 (a.a. 837-1142)
Experiment: In vitro JAK kinase assay (HTRF), JAK1
Type: biochemical
Settings: JAK2/JAK1 IC50 ratio, 1 mM ATP

- smiles-structure: "N#CC[C@]1(n2cc(-c3ncnc4[nH]ccc34)cn2)C[C@H](N2CCC(Oc3cc(CN4CCC[C@H]4CO)cc(C(F)(F)F)n3)CC2)C1"
  tested-target: "human JAK1 (a.a. 837-1142)"
  measured-parameter: "JAK2/JAK1"
  endpoint-value: ">10"
- smiles-structure: "N#CCC1(n2cc(-c3ncnc4[nH]ccc34)cn2)CN([C@H]2CC[C@@H](Oc3cc(CCO)nc(C(F)(F)F)n3)CC2)C1"
  tested-target: "human JAK1 (a.a. 837-1142)"
  measured-parameter: "JAK2/JAK1"
  endpoint-value: ">10"

Next, consider the following compound.
Prompt: I'd like to know its JAK2/JAK1. The compound in question is C[C@@H](CO)NCc1cc(OC2CCN([C@H]3C[C@](CC#N)(n4cc(-c5ncnc6[nH]ccc56)cn4)C3)CC2)nc(C(F)(F)F)c1
Completion: >10

----------
Below are IC50 values measured for human JAK1 (a.a. 837-1142) (Homo sapiens, UniProt P23458).

- smiles-structure: "N#CCC1(n2cc(-c3ncnc4[nH]ccc34)cn2)CN([C@H]2CC[C@@H](Oc3cc(CCO)nc(C(F)(F)F)n3)CC2)C1"
  IC50: "< 10 nM"
- smiles-structure: "N#CCC1(n2cc(-c3ncnc4[nH]ccc34)cn2)CN([C@H]2CC[C@@H](Oc3cc(CN4CC[C@H](O)C4)cc(C(F)(F)F)n3)CC2)C1"
  IC50: "< 10 nM"

Next, consider the following compound.
Prompt: I'd like to know its IC50. The compound in question is C[C@H](NC(=O)c1cc(F)c(N2CC(CC#N)(n3cc(-c4ncnc5[nH]ccc45)cn3)C2)cc1F)C(F)(F)F
Completion: < 10 nM
